self-cleavage overview
B1: LINE1-full (parent)
chain: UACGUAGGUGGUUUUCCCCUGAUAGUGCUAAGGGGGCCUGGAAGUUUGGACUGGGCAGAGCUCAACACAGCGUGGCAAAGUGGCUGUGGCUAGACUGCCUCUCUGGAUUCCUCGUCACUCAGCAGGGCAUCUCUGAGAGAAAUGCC

# Variants of: B1
# Test Method Notes: self-cleavage, relative activity (ratio to wild type); higher = more cleavage; in vitro, sequencing; the parent is a self-cleaving ribozyme
Answer as a number with no unit attached.

Examples from the recorded data:
Mutant Id	self-cleavage
U45C C76A	1.22
G44C U115A	1.77
G88A U100A	0.07

Provide self-cleavage value for the following variant: U9A U45G
1.05

Provide self-cleavage value for the following variant: A6G A67G
0.39

Provide self-cleavage value for the following variant: U96C A107U
0.17

Provide self-cleavage value for the following variant: U39A U104C
1.57

Provide self-cleavage value for the following variant: U15A A121C
0.82

Provide self-cleavage value for the following variant: U15A C128U
0.76

Provide self-cleavage value for the following variant: G75C U108C
0.77

Provide self-cleavage value for the following variant: G60A A69U
0.03

Provide self-cleavage value for the following variant: G11A A50C
1.24

Provide self-cleavage value for the following variant: U9G G93U
0.05

Provide self-cleavage value for the following variant: A50U G54U
0.66

Provide self-cleavage value for the following variant: G25C U102C
1.31

Provide self-cleavage value for the following variant: C37U U45C
1.02

Provide self-cleavage value for the following variant: U12G A24U
1.5

Provide self-cleavage value for the following variant: U9C U130A
1.16

Provide self-cleavage value for the following variant: U5C A138C
0

Provide self-cleavage value for the following variant: A24U G106A
1.51

Provide self-cleavage value for the following variant: C28U U115G
1.3

Provide self-cleavage value for the following variant: A94U A124G
0.33
